- tested target: human heart PDE III
- assay overview: Inhibitory activity on phosphodiesterase, heart PDE III (cAMP)
- test settings: cAMP substrate
pIC50: −log10 of the molar value.
Listed next: entries and their corresponding pIC50.

>  <molecule>
CN(C)c1ccc2c(c1)CN1CC(=O)NC1=N2

>  <pIC50>
5.85

$$$$
>  <molecule>
Cl.Cl.O.O=C1CN2Cc3cc(N4CCCCC4)c(Cl)cc3N=C2N1 [Example 16, dihydrochloride monohydrate]

>  <pIC50>
7.02

$$$$
>  <molecule>
Cl.O=C1CN2Cc3c(sc4c3CCCC4)N=C2N1 [DH-6471, reference compound]

>  <pIC50>
6.34

$$$$
>  <molecule>
O=C1CN2Cc3cc(N4CCCCC4)ccc3N=C2N1 [7-Piperidino Compound, reference compound]

>  <pIC50>
6.10

$$$$

The measurements presented in this section are drawn from patent US4610987A.
